Target: T1, AMHR-II/Fc fusion protein (human, UniProt Q16671 18-149, limits assumed)
T1 construct: also called AMHR-II recombinant receptor expressed in the form of fusion protein with a region Fc; recombinant target; not shown: Fc region
T1 sequence (Q16671 18-149 limits assumed): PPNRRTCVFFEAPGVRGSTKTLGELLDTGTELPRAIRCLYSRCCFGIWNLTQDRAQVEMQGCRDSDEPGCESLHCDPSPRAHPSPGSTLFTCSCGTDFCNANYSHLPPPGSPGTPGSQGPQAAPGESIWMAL
Test: SPR, BIAcore X100; AMHR-II/Fc immobilised on CM5 chip, antibody injected; 25 C
pKd: −log10 of the molar value.
Collected pKd values appear next to each entry.
observationType: pKd

- chimeric 12G4 monoclonal antibody (antibody, V domains shown, Variable regions without leader joined to the human constant regions; also called 12G4-Chimeric; unmutated chimeric 12G4 antibody) VH: QVQLQQSGPELVKPGASVRMSCKASGYTFTSYHIHWVKQRPGQGLEWIGWIYPGDDSTKYNEKFKGKTTLTADKSSSTAYMLLSSLTSEDSAIYFCTRGDRFAYWGQGTLVTVSA VL: QIVLTQSPAIMSASLGEGITLTCSASSSVRYIHWYQQKSGTSPKLLIYSTSNLASGVPSRFSGSGSGTFHSLTISSVEAEDAADYYCLQWSSYPWTFGGGTKLEIKR: 6.67
- mutated humanized 12G4 antibody 3C-23 produced in YB2/0 (antibody, human IgG1, kappa, V domains shown, Chains without leader; Mutations VH-Q3R, VL-I177T/S179P; also called 3C_23 YB2/0; R901 3C23) VH: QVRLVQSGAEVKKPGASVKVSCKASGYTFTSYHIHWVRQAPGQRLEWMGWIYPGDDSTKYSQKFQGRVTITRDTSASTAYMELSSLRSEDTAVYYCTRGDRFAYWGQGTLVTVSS VL: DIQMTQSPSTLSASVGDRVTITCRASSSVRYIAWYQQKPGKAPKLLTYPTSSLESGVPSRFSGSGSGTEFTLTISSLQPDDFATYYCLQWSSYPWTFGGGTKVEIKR: 7.04
- mutated humanized 12G4 antibody 3C-23K produced in CHO (antibody, human IgG1, kappa, V domains shown, also called 3C_23K CHO; 3C-23K-CHO) VH: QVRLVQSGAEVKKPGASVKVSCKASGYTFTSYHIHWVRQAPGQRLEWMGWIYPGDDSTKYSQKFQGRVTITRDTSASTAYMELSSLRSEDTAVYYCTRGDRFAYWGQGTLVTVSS VL: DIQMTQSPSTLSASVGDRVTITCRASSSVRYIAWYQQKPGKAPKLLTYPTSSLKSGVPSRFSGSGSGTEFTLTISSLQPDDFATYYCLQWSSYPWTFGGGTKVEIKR: 7.60
